Provenance of the data: ChEMBL document CHEMBL4270664

test: Clearance in mouse at 3 mg/kg, iv; assay type: ADME, organism-based; conditions: in vivo

{"columns": ["Smiles String", "Result Unit", "clearance"],
 "data": [
  ["CCC[C@H](C)Nc1ncc2c(-c3ccc(CNCCN(CC)CC)cc3)cn([C@H]3CC[C@H](O)CC3)c2n1", "mL/min/kg", 54],
  ["CCC[C@H](C)Nc1ncc2c(-c3cnn(C4CCNCC4)c3)cn([C@H]3CC[C@H](O)CC3)c2n1", "mL/min/kg", 32],
  ["CCC[C@H](C)Nc1ncc2c(-c3ccc(CN4CCOCC4)cc3)cn([C@H]3CC[C@H](O)CC3)c2n1", "mL/min/kg", 41],
  ["CCC[C@H](C)Nc1ncc2c(-c3ccc(CN4C5CCC4CC5)cc3)cn([C@H]3CC[C@H](O)CC3)c2n1", "mL/min/kg", 302],
  ["CCC[C@H](C)Nc1ncc2c(-c3ccc(CN4CCCN(C)CC4)cc3)cn([C@H]3CC[C@H](O)CC3)c2n1", "mL/min/kg", 29],
  ["CCC[C@H](C)Nc1ncc2c(-c3ccnc(N4CCNCC4)c3)cn([C@H]3CC[C@H](O)CC3)c2n1", "mL/min/kg", 55],
  ["CCC[C@H](C)Nc1ncc2c(-c3ccc(S(=O)(=O)N4CCN(C)CC4)cc3F)cn([C@H]3CC[C@H](O)CC3)c2n1", "mL/min/kg", 50]
]}
